This listing pairs compounds with measured % LNCaP cells in phase S at 25 μM.
# Test system: LNCaP cells
# protocol-summary: Flow cytometry analysis of cell cycle
# Type: cell-based, human
# measurement-setup: 25 μM, 48 h; untreated cells 20
Returns: string containing the number followed by the unit.

Example cases with answers are listed next.
> print(dat)
                                 cpd.smiles  test.system  measured
1  CCCc1ccc(S(=O)(=O)N2CCN(C(=O)c3cc(OC)ccc3Br)CC2)cc1  LNCaP cells        3%
2  COc1ccc(Br)c(C(=O)N2CCN(S(=O)(=O)c3ccc(C(F)(F)F)cc3)CC2)c1  LNCaP cells       10%

Q: Quick one: % LNCaP cells in phase S at 25 μM for COc1ccc(Br)c(C(=O)N2CCN(S(=O)(=O)c3ccc([N+](=O)[O-])cc3)CC2)c1 ?
A: 15%

Q: Same thing, different compound: COc1ccc(Br)c(C(=O)N2CCN(S(=O)(=O)c3ccccc3)CC2)c1
A: 18%

Q: Same thing, different compound: COc1ccc(Br)c(C(=O)N2CCN(S(=O)(=O)c3ccc(C(C)=O)cc3)CC2)c1
A: 18%

Q: Same thing, different compound: COc1ccc(Br)c(C(=O)N2CCN(S(=O)(=O)c3ccc(F)cc3)CC2)c1
A: 5%

----------
This listing pairs compounds with measured Viable C4-2 cells at 25 μM (% of control).
# Tested on: C4-2 cells
# protocol-summary: MTT assay (cell viability)
# measurement-setup: 48 h

> print(dat)
                                 cpd.smiles         measured
1  COc1ccc(Br)c(C(=O)N2CCN(S(=O)(=O)c3ccc(F)cc3)CC2)c1  49 % of control
2  COc1ccc(Br)c(C(=O)N2CCN(S(=O)(=O)c3ccc(C)cc3)CC2)c1  59 % of control
3  COc1ccc(Br)c(C(=O)N2CCN(S(=O)(=O)c3ccc(Cl)cc3)CC2)c1  59 % of control

Q: Quick one: Viable C4-2 cells at 25 μM (% of control) for COc1ccc(Br)c(C(=O)N2CCN(S(=O)(=O)Cc3ccccc3)CC2)c1 ?
A: 37 % of control

Q: Same thing, different compound: COc1ccc(Br)c(C(=O)N2CCN(S(=O)(=O)c3ccc(-c4ccccc4)cc3)CC2)c1
A: 90 % of control

Q: Same thing, different compound: COc1ccc(Br)c(C(=O)N2CCN(S(=O)(=O)c3ccc([N+](=O)[O-])cc3)CC2)c1
A: 42 % of control

Q: Same thing, different compound: COc1ccc(Br)c(C(=O)N2CCN(S(=O)(=O)c3ccccc3)CC2)c1
A: 45 % of control

----------
This listing pairs molecules with measured % Inhibition of proliferation at 25 μM (BrDU) on LNCaP.
# Test system: LNCaP cells
# protocol-summary: Proliferation by BrDU incorporation
# Type: cell-based, human
# measurement-setup: 25 μM, 48 h of treatment
Numbers only; they are read as %.

Example cases with answers are listed next.
> print(dat)
                                 cpd.smiles  measured
1  COc1ccc(Br)c(C(=O)N2CCN(S(=O)(=O)c3cccc(F)c3)CC2)c1         0
2  COc1ccc(Br)c(C(=O)N2CCN(S(=O)(=O)c3cccc(C(F)(F)F)c3)CC2)c1      16.7
3  COc1ccc(Br)c(C(=O)N2CCN(S(=O)(=O)Cc3ccccc3)CC2)c1      16.8
4  COc1ccc(Br)c(C(=O)N2CCN(S(=O)(=O)c3ccc(F)cc3F)CC2)c1      60.6

Q: Quick one: % Inhibition of proliferation at 25 μM (BrDU) on LNCaP for COc1ccc(Br)c(C(=O)N2CCN(S(=O)(=O)c3ccccc3F)CC2)c1 ?
A: 27.1

Q: Same thing, different molecule: COc1ccc(Br)c(C(=O)N2CCN(S(=O)(=O)c3ccc(C)cc3)CC2)c1
A: 0

----------
# Tested on: LNCaP cells
# protocol-summary: Proliferation by BrDU incorporation
# Format: cell-based, human
# measurement-setup: 25 μM, 48 h of treatment
measured-endpoint: % Inhibition of proliferation at 25 μM (BrDU) on LNCaP (%)
Numbers only; they are read as %.

> print(dat)
                                 cpd.smiles  measured
1  COc1ccc(Br)c(C(=O)N2CCN(S(=O)(=O)c3ccc(-c4ccccc4)cc3)CC2)c1      48.3
2  COc1ccc(Br)c(C(=O)N2CCN(S(=O)(=O)c3ccccc3C(F)(F)F)CC2)c1      40.1
3  COc1ccc(Br)c(C(=O)N2CCN(S(=O)(=O)c3ccc(Cl)cc3)CC2)c1      49.7

Now for another entry.
Q: Record COc1ccc(Br)c(C(=O)N2CCN(S(=O)(=O)c3ccc(OC(F)(F)F)cc3)CC2)c1 : what is its % Inhibition of proliferation at 25 μM (BrDU) on LNCaP with LNCaP cells?
A: 45.5
